Kindly state OD at 560 nm for each of the entries shown.
Target: T1, human ANGPTL3/8 complex (human, UniProt Q9Y5C1 17-460; Q6UXH0 22-198, limits assumed)
T1 construct: also called hANGPTL3/8 complex; ANGTPL3/8 complex
T1 sequence 1: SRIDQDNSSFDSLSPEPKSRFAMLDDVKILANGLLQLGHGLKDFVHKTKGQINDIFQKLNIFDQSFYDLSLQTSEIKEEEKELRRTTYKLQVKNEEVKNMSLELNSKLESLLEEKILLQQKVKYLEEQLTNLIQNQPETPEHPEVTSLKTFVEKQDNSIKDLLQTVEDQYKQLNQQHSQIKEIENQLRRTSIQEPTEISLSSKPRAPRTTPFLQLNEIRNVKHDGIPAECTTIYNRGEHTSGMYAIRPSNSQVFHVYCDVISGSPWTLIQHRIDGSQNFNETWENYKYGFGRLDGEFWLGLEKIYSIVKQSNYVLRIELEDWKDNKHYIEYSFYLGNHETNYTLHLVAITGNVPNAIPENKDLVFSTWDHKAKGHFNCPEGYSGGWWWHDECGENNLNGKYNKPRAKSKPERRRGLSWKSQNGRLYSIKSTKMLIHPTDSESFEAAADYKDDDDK
T1 sequence 2: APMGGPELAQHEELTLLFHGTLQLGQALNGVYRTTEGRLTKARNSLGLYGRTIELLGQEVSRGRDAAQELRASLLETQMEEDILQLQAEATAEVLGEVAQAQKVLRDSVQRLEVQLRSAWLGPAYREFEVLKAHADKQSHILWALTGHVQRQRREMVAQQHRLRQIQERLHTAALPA
Experiment: ELISA; Ab captured by anti-human Fc; biotinylated antigen at 0.412 nM

Entry anti-ANGPTL3/8 complex Ab having a LC of SEQ ID NO:5 and a HC of SEQ ID NO:6 (antibody, human IgG4 S228P, kappa, F234A L235A, V domains shown, In the ELISA assays tested as IgG from CHO supernatants; also called the Ab) VH: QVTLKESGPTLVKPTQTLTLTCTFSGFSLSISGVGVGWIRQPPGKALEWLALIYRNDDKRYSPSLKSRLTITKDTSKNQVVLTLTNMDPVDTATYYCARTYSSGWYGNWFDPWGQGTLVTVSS VL: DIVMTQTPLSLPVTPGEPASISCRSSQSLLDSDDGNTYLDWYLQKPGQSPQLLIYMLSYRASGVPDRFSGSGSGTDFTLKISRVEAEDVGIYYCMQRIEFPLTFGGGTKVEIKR : reported OD at 560 nm = ? 0.231 OD 560 nm

Entry Ab with LC variant having a E99Q mutation (SEQ ID NO:25) and a HC of SEQ ID NO:6 (antibody, human IgG4 S228P, kappa, F234A L235A, V domains shown, also called E99Q Variant Ab; E99Q Ab) VH: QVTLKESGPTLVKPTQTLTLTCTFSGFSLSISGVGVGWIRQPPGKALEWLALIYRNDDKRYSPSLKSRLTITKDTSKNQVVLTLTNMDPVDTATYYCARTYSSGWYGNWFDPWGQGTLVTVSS VL: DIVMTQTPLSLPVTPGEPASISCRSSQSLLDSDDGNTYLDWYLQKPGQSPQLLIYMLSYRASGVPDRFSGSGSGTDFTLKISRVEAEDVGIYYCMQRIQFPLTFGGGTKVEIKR : reported OD at 560 nm = ? 0.234 OD 560 nm

Entry Ab with LC variant having a D31S mutation (SEQ ID NO:21) and a HC of SEQ ID NO:6 (antibody, human IgG4 S228P, kappa, F234A L235A, V domains shown, also called D31S Variant Ab; D31S Ab) VH: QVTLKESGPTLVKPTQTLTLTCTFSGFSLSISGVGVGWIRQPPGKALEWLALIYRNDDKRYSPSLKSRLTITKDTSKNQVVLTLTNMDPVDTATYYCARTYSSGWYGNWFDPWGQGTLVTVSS VL: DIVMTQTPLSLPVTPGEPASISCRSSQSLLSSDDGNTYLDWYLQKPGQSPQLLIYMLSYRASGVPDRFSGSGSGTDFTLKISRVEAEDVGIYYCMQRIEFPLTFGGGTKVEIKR : reported OD at 560 nm = ? 0.234 OD 560 nm

Entry Ab with LC variant having a D33A mutation (SEQ ID NO:22) and a HC of SEQ ID NO:6 (antibody, human IgG4 S228P, kappa, F234A L235A, V domains shown, also called D33A Variant Ab; D33A Ab) VH: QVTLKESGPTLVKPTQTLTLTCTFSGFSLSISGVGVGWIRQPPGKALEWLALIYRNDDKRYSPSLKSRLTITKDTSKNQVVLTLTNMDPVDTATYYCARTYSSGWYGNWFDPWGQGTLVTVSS VL: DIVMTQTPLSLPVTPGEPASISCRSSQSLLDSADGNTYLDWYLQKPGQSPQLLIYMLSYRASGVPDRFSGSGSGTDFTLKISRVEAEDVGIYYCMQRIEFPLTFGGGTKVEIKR : reported OD at 560 nm = ? 0.196 OD 560 nm
